- Test system: CD2F1 mice, L1210 leukemia ip, survival T/C
- protocol_text: NCI In Vivo Anticancer Drug Screen. Data for tumor model L1210 Leukemia (intraperitoneal) in CD2F1 (CDF1) mice
- reported_conditions: endpoint: mean survival time; dose: 200.0 mg/kg/injection; schedule: Q01DX009 (ip); vehicle: saline; higher = longer survival
Inconclusive results and toxic doses are left out.
assay_metric: T/C

In [3]: df
Out[3]:
                                   molecule                       experimental_system    recorded_value
0            COc1ccc(C(=O)Nc2ccc(Br)cc2)cc1  CD2F1 mice, L1210 leukemia ip, survival T/C  108 % of control
1  O=C(N=C1OC2C(OC(=O)c3ccccc3)C(COC(=O)c3ccccc3)OC2N1C(=O)c1ccccc1)c1ccccc1 (configuration not stated)  CD2F1 mice, L1210 leukemia ip, survival T/C  100 % of control
2                     COC(=O)C(NC=O)C(=O)OC  CD2F1 mice, L1210 leukemia ip, survival T/C  107 % of control
3                         COC(=O)C1(N)CCCC1  CD2F1 mice, L1210 leukemia ip, survival T/C  121 % of control
4               CC(C)(C)c1cccc(C(C)(C)C)c1O  CD2F1 mice, L1210 leukemia ip, survival T/C   94 % of control
5                              OCC1C=CCC=C1  CD2F1 mice, L1210 leukemia ip, survival T/C  107 % of control
6             O=C(c1ccc(O)cc1O)c1ccc(O)cc1O  CD2F1 mice, L1210 leukemia ip, survival T/C   93 % of control

----------
- Test system: CD2F1 mice, L1210 leukemia ip, survival T/C
- protocol_text: NCI In Vivo Anticancer Drug Screen. Data for tumor model L1210 Leukemia (intraperitoneal) in CD2F1 (CDF1) mice
- reported_conditions: endpoint: mean survival time; dose: 400.0 mg/kg/injection; schedule: Q04DX003 (ip); vehicle: saline; higher = longer survival
Inconclusive results and toxic doses are left out.
assay_metric: T/C

                                    molecule  assay_metric    recorded_value
 0                                 CNC(=O)OC           T/C  108 % of control
 1  Cc1c(Cl)c(Cl)c(Cl)c(-c2c(Cl)c(C)c(Cl)c(Cl)c2Cl)c1Cl           T/C   98 % of control
 2                  COC(Cn1cnc2c(N)ncnc21)OC           T/C  112 % of control
 3  CCCCC=C1CC(C)CCC(C)C1 (stereo not drawn)           T/C  104 % of control
 4      N#Cc1cn(C2CCCCC2)c2[nH]c(=O)cc(O)c12           T/C  121 % of control
 5                  CC(=O)NCC1CCN(C(C)=O)CC1           T/C   96 % of control
 6                     CCC(=O)c1ccc(O)c(O)c1           T/C   92 % of control
 7  COc1cc2cc3c4cc(OC)c(OC)cc4cc[n+]3c(C)c2cc1OC           T/C  116 % of control
 8                                   O=CNCCO           T/C  110 % of control
 9  NC(=Nc1ccccc1)Nc1ccccc1 (tested in a mixture with another compound)           T/C  100 % of control
10       Cc1cc(C)c2c(C#N)cn(-c3ccccc3Cl)c2n1           T/C   97 % of control
11                     COC(=O)C(NC=O)C(=O)OC           T/C   95 % of control
12  COC1C(O)C(O)C(O)C(O)C1O (stereo not drawn)           T/C   93 % of control

----------
- System: CD2F1 mice, L1210 leukemia ip, survival T/C
- protocol_text: NCI In Vivo Anticancer Drug Screen. Data for tumor model L1210 Leukemia (intraperitoneal) in CD2F1 (CDF1) mice
- reported_conditions: endpoint: mean survival time; dose: 50.0 mg/kg/injection; schedule: Q01DX001 (ip); vehicle: saline with Tween-80
Inconclusive results and toxic doses are left out. The calls were made as follows: active = survival T/C of 150% or more; inactive = T/C below 125% in these data.
Classes used: active, inactive

                                   compound       cat
0                   Cc1ccc(NC2=NCCS2)c(C)c1  inactive
1   COc1ccc(CCNC2c3ccccc3C=Cc3ccccc32)cc1OC  inactive
2                         NNc1c(F)ccc(F)c1F  inactive
3  OC1CCc2c(Cl)sc(Cl)c21 (stereo not given)  inactive
4                       CCOC(=O)c1ccc(N)cc1  inactive
5  CC(=O)NC1CCC(C(C)C)CC1 (stereo not given)  inactive
6  O=C1C(c2ccccc2)=C(c2ccccc2)c2cc(Br)c(Br)cc21  inactive
7                     NNC(=O)CCCCCCCCCCCCCO  inactive
8  O=NN(CCCl)C(=O)NC1CCCN(Cc2ccccc2)C1 (stereo not given)    active
9                        Clc1[nH]nc2ccccc12  inactive

----------
Reported values of T/C for individual entries
- System: CD2F1 mice, L1210 leukemia ip, survival T/C
- protocol_text: NCI In Vivo Anticancer Drug Screen. Data for tumor model L1210 Leukemia (intraperitoneal) in CD2F1 (CDF1) mice
- reported_conditions: endpoint: mean survival time; dose: 50.0 mg/kg/injection; schedule: Q01DX009 (ip); vehicle: saline; higher = longer survival
Toxic doses and inconclusive results are not listed.
assay_metric: T/C

In [3]: df
Out[3]:
                                    molecule  assay_metric    recorded_value
 0                       C=C(CC(=O)OC)C(=O)O           T/C  107 % of control
 1           CC1C(C)C1Cl (centres undefined)           T/C   89 % of control
 2  C=C(C)C1CCC2=CCCC(C)C2(C)C1 (centres undefined)           T/C   98 % of control
 3                              CN=Cc1ccccc1           T/C   97 % of control
 4         CC(C)N1CCC1CO (centres undefined)           T/C  100 % of control
 5  Cc1ccc(C2(SCC(N)C(=O)O)c3ccccc3-c3ccccc32)cc1 (centres undefined)           T/C   95 % of control
 6  NC(=O)C1(N2CCCCC2)CCN(CCCC(=O)c2ccc(F)cc2)CC1           T/C  101 % of control
 7        Cc1cc(O)c(N=Nc2ccc(C(=O)O)cc2)cc1C           T/C  111 % of control
 8    COc1ccc(CC2=NCCc3cc(OC)c(OC)cc32)cc1OC           T/C  101 % of control
 9    NNC(=O)C1CC2CCC1C2 (centres undefined)           T/C  107 % of control
10                       C=C(Br)CN(CC)C(C)=O           T/C  114 % of control
11                            NCCOS(=O)(=O)O           T/C   98 % of control
12  O=C1OC(=O)C2C3C=CC(O3)C12 (centres undefined)           T/C  102 % of control
13          O=C1CCCCc2c1ccc(O)c2[N+](=O)[O-]           T/C   97 % of control
14                                CNC(=O)CCl           T/C  105 % of control
15                       O=CC(=O)c1ccc(O)cc1           T/C  103 % of control
16  CCCC(=O)Nc1ncnc2c1ncn2C1OC2COP(=O)(O)OC2C1OC(=O)CCC (centres undefined)           T/C   98 % of control
17  CC(C)CC(NC(=O)C(CSC(c1ccccc1)(c1ccccc1)c1ccccc1)NC(c1ccccc1)(c1ccccc1)c1ccccc1)C(=O)O (centres undefined)           T/C   97 % of control
18       O=C(CCCCl)CC(O)(C(F)(F)Cl)C(F)(F)Cl           T/C  100 % of control
